For each entry below, report its pIC50 value.
Molecular target: full-length WRN helicase (Homo sapiens)
Construct: Full length recombinant WRN [18], BLM [19], and FANCJ [20] proteins were purified from insect cells; made in house; host or cells: insect cells
Sequence (Q14191 whole entry): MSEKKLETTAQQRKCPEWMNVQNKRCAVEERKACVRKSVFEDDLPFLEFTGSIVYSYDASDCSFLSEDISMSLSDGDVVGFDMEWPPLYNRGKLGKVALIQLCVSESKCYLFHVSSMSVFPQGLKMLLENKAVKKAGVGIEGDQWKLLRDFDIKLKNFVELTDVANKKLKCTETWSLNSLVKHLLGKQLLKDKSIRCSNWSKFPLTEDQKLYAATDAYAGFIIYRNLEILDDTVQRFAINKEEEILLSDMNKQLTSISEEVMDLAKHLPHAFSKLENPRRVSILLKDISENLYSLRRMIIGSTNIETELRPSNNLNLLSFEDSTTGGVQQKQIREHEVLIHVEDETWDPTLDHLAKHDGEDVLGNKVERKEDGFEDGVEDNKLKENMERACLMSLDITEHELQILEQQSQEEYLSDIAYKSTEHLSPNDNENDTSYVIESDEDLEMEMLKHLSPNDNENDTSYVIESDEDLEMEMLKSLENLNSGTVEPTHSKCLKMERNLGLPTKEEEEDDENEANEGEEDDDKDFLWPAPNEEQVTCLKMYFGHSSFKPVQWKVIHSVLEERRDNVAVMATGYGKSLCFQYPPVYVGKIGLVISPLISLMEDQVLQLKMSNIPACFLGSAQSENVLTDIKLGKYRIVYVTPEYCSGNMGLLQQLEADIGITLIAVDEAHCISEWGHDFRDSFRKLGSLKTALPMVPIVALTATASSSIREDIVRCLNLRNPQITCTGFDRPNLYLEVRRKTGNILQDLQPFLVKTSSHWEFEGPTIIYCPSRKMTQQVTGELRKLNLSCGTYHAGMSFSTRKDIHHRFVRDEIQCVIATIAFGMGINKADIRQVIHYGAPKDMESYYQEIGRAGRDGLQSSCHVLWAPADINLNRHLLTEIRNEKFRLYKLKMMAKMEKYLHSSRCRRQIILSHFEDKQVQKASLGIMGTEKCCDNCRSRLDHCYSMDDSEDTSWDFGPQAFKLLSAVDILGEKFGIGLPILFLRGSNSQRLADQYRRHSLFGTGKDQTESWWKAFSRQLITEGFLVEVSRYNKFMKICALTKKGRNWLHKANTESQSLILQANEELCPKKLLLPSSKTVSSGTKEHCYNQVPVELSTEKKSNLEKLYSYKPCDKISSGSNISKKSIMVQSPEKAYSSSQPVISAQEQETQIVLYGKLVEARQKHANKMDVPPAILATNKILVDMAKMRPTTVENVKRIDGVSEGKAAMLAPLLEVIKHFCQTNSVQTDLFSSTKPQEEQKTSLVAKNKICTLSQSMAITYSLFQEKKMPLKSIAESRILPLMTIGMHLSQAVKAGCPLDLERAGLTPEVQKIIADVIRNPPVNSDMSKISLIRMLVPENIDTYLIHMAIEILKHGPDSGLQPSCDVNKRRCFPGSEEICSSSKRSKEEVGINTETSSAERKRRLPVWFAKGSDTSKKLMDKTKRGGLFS
Assay: Radiometric helicase inhibitor assay, full-length WRN unwinding of FORKR DNA substrate
Format: biochemical
Settings: radiometric assay; full-length WRN 1 nM; FORKR 0.5 nM; compound 0-100 μM; read-out: IC50
Give bare numbers, as −log10 of the molar value.

// for each compound below, give its pIC50
1. CC(C)(C)c1ccc(-c2nc(SCCCOc3ccccc3)n3[nH]c(=O)cc3n2)cc1
2. Cc1ccc(N2CCN(c3cnn(-c4nc5ccccc5s4)c(=O)c3Cl)CC2C)cc1 (centres unmarked)
3. CCOc1ccc(-c2nc(SCC(=O)Nc3ccc(C)c(C)c3)n3[nH]c(=O)cc3n2)cc1
4. Cc1ccc(-c2csc(NS(=O)(=O)c3cccc(F)c3)n2)o1
5. COc1ccc2nc(O)c(-c3noc(-c4ccccc4)n3)cc2c1
6. CCc1ccc(NC(=O)c2ccc3c(O)c([S+](=O)([O-])c4ccc(Cl)cc4)c(=O)[nH]c3c2)cc1
7. COc1ccc2nc(O)c(-c3noc(-c4ccc(F)cc4)n3)cc2c1

5.30
5.00
5.00
5.40
4.92
4.30
5.52

Read the entry `Cc1ccc(CN(C)C(=O)CCc2nc(O)c3c4c(sc3n2)CCCC4)o1` and write its reported pIC50.
4.96

---

Target: GST-WRN500-946 helicase domain fragment (Homo sapiens)
Construct: made in house; host or cells: insect cells
Assay: High-throughput fluorometric helicase screen, PubChem AID 651768
Assay type: biochemical
Details: initial qHTS; 20 nM GST-WRN500-946; 100 nM FORKF; NA = Not Active; read-out: IC50 (μM) Assay ID 651768
ASSAY_READOUT: IC50
For clarity, give the value followed by its unit.

Go through the list and state IC50 for each entry.
1. COC(=O)c1cc(NC(=O)c2ccc3c(c2)NC(=O)c2ccccc2S3)cc(C(=O)OC)c1
2. CCc1ccc(NC(=O)c2ccc3c(O)c([S+](=O)([O-])c4ccc(Cl)cc4)c(=O)[nH]c3c2)cc1

1. 16.8 µM
2. 26.6 µM

---

Target: full-length WRN helicase (Homo sapiens)
Construct: Full length recombinant WRN [18], BLM [19], and FANCJ [20] proteins were purified from insect cells; made in house; host or cells: insect cells
Test: Radiometric helicase inhibitor assay, full-length WRN unwinding of FORKR DNA substrate;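 also: WRN preincubated with compound 15 min at room temperature, then unwinding run 15 min at 37 °C with 2 mM ATP, relative to WRN unwinding without compound (100%)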
Assay type: biochemical
Conditions: 50 μM compound; full-length WRN 1 nM; FORKR 0.5 nM; read-out: % Control WRN Helicase Activity
ASSAY_READOUT: remaining activity at 50 µM (%)
Give bare numbers, in %.

Some solved entries appear below for comparison.
- COMPOUND: "Cc1cn(C)c(CC(=O)N2CCN(c3ccccc3F)CC2)c1C(=O)O"
  STUDY_TARGET: "full-length WRN helicase (Homo sapiens)"
  RECORDED_VALUE: 108
- COMPOUND: "CC1=C(C(=O)Nc2ccccc2)C(c2ccc[nH]2)n2ncnc2N1 (centres unmarked)"
  STUDY_TARGET: "full-length WRN helicase (Homo sapiens)"
  RECORDED_VALUE: 30
- COMPOUND: "Cc1ccc(N2CCN(c3cnn(-c4nc5ccccc5s4)c(=O)c3Cl)CC2C)cc1 (centres unmarked)"
  STUDY_TARGET: "full-length WRN helicase (Homo sapiens)"
  RECORDED_VALUE: 9
- COMPOUND: "Cc1ccc(C)c(NC(=O)CN(C)C(=O)c2cccc(-n3cccc3)c2)c1"
  STUDY_TARGET: "full-length WRN helicase (Homo sapiens)"
  RECORDED_VALUE: 5
- COMPOUND: "Cc1ccc(-c2csc(NS(=O)(=O)c3cccc(F)c3)n2)o1"
  STUDY_TARGET: "full-length WRN helicase (Homo sapiens)"
  RECORDED_VALUE: 1
- COMPOUND: "CCc1nnc(NC(=O)c2cc(-c3ccc(C)o3)nc3ccccc23)s1"
  STUDY_TARGET: "full-length WRN helicase (Homo sapiens)"
  RECORDED_VALUE: 93
- COMPOUND: "COc1ccc(N2CCN(C(=O)Cc3c(C(=O)O)c(C)cn3C)CC2)cc1"
  STUDY_TARGET: "full-length WRN helicase (Homo sapiens)"
  RECORDED_VALUE: 99
- COMPOUND: "Oc1ccc(C2=CSc3nnc(-c4ccco4)n3N2)cc1O"
  STUDY_TARGET: "full-length WRN helicase (Homo sapiens)"
  RECORDED_VALUE: 92

Count: 7. Required value per item: remaining activity at 50 µM.
1. Cc1nn(-c2ccccc2)c2nc(-c3ccco3)cc(C(=O)O)c12
2. COc1ccccc1N1CCN(C(=O)Cc2c(C(=O)O)c(C)cn2C)CC1
3. COc1ccccc1Nc1ccc2c(O)cc(S(=O)(=O)O)cc2c1
4. CN(Cc1ccco1)[S+](=O)([O-])c1nnc(NC(=O)c2cccc(Cl)c2)s1
5. CCCN(CCC)CCCNC(=O)c1cc2c(-c3ccc(OC)c(OC)c3)nn(C)c2s1
6. O=c1[nH]c2ccccc2n2c(-c3ccccc3)nnc12
7. COc1ccc2nc(O)c(-c3noc(-c4cccs4)n3)cc2c1

1: 100; 2: 113; 3: 3; 4: 13; 5: 109; 6: 99; 7: 42

Quick request: remaining activity at 50 µM for each listed item, please.
1. O=C(O)c1ccccc1-c1ccc(/C=C/c2cc(C(F)(F)F)nc(O)n2)o1
2. Cc1cc(OCC(=O)Nc2ccc(N3CCN(C(=O)c4ccco4)CC3)cc2)cc(C)c1Cl
3. Cc1ccc(-c2nc(SCc3ccc(Br)cc3)n3[nH]c(=O)cc3n2)cc1

76
64
7

Working through the 6 compounds below one at a time, give remaining activity at 50 µM for each.
1. Cc1ccc(CN(C)C(=O)CCc2nc(O)c3c4c(sc3n2)CCCC4)o1
2. COC(=O)c1cc(NC(=O)c2ccc3c(c2)NC(=O)c2ccccc2S3)cc(C(=O)OC)c1
3. CCOc1ccc(-c2nc(SCC(=O)Nc3ccc(C)c(C)c3)n3[nH]c(=O)cc3n2)cc1
4. COc1ccc2nc(O)c(-c3noc(-c4ccccc4)n3)cc2c1
5. O=c1cc(N2CCNCC2)nc2sc(-c3ccncc3)nn12
6. O=C(c1cccc(-n2cccc2)c1)N1CCN(S(=O)(=O)c2ccccc2)CC1

1: 8; 2: 10; 3: 20; 4: 18; 5: 0; 6: 4

Please state remaining activity at 50 µM for every compound in the list that follows.
1. O=C(Nc1nncs1)c1cc(-c2ccco2)nc2ccccc12
2. Cc1cc(OC(C)C(=O)Nc2cccc(-c3nc4ccccc4o3)c2)cc(C)c1Cl (centres unmarked)
3. CC(C)(C)c1ccc(-c2nc(SCCCOc3ccccc3)n3[nH]c(=O)cc3n2)cc1
4. COc1ccc2nc(O)c(-c3noc(-c4ccc(F)cc4)n3)cc2c1
5. Oc1c(C(c2ccccc2)N2CCOCC2)ccc2ccccc12 (centres unmarked)

1. 69
2. 65
3. 5
4. 6
5. 0
